# system name: T1, soluble HLA-A2 MAGE-A8 (…) tetramer (human)
# T1 construct: Bought tetramer reagent; also called MAGE-A8/HLA tetramer reagent; HLA-A02:01 MAGE-A8 tetramer
# test name: flow cytometry, HLA-A2 MAGE-A8 (…) tetramer staining of CHO cells transfected with the TCR
observable: % tetramer in Ag+ gate (MAGE-A8) (%)
Numeric only. Scale: %

Input line: # input binder: PN45460 (TCR, V domains shown, full-length chains on transfected CHO cells; also called TCR No. 49) V domain 1: GNSVTQMEGPVTLSEEAFLTINCTYTATGYPSLFWYVQYPGEGLQLLLKATKADDKGSNKGFEATYRKETTSFHLEKGSVQVSDSAVYFCALSDTRDDKIIFGKGTRLHILP V domain 2: EAQVTQSPRYLITVTGKKLTVTCSQNMNHEYMSWYRQDPGLGLRQIYYSMNVEVTDKGDVPEGYKVSRKEKRNFPLILESPSPNQTSLYFCASSPGTGGFSPLHFGNGTRLTVT ; wanted: its % tetramer in Ag+ gate (MAGE-A8)
Output line: 16.7

Input line: Entry to check: PN45489 (TCR, V domains shown, stained with anti-mouse TCR constant region H57-597; full-length chains on transfected CHO cells; also called TCR No. 48) V domain 1: TQLLEQSPQFLSIQEGENLTVYCNSSSVFSSLQWYRQEPGEGPVLLVTVVTGGEVKKLKRLTFQFGDARKDSSLHITAAQPGDTGLYLCAEDGGSQGNLIFGKGTKLSVKP V domain 2: DVKVTQTSRYLVKRTGEKVFLECVQDMDHENMFWYRQDPGLGLRLIYFSYDVKMKEKGDIPEGYSVSREKKERFSLILESASTNQTSMYLCASSLQGRYYGYTFGSGTRLTVV
Output line: 6.39

Input line: Continue with PN45557 (TCR, V domains shown, full-length chains on transfected CHO cells; also called TCR No. 52) V domain 1: AQKITQTQPGMFVQEKEAVTLDCTYDTSDPSYGLFWYKQPSSGEMIFLIYQGSYDQQNATEGRYSLNFQKARKSANLVISASQLGDSAMYFCAMREGPGSGNTGKLIFGQGTTLQVKP V domain 2: NAGVTQTPKFRILKIGQSMTLQCAQDMNHNYMYWYRQDPGMGLKLIYYSVGAGITDKGEVPNGYNVSRSTTEYFPLRLELAAPSQTSVYFCASSYSEWQNYGYTFGSGTRLTVV
Output line: 66.3

Input line: What do you get for PN45481 (TCR, V domains shown, full-length chains on transfected CHO cells; also called TCR No. 54) V domain 1: GNSVTQMEGPVTLSEEAFLTINCTYTATGYPSLFWYVQYPGEGLQLLLKATKADDKGSNKGFEATYRKETTSFHLEKGSVQVSDSAVYFCALSDTRDDKIIFGKGTRLHILP V domain 2: DVKVTQSSRYLVKRTGEKVFLECVQDMDHENMFWYRQDPGLGLRLIYFSYDVKMKEKGDIPEGYSVSREKKERFSLILESASTNQTSMYLCASSLQGRYYGYTFGSGTRLTVV ?
Output line: 72.9
